Origin of measurements: patent US20170020838A1

Would you kindly list first time point where increased ciliary transport is observed (class summary) for each of these compounds?
System: ciliary transport of pig airway mucus secretions on the ex vivo pig trachea
Assay: Ciliary transport of mucus secretions (tracheal mucus velocity) on ex vivo normal pig trachea
Details: Classes 2 and 3, after application of the treatment
Give bare numbers, in min.

OC[C@@H](O)[C@@H](O)[C@H](O)[C@H](O)CO
25
O=C([O-])[C@H](O)[C@@H](O)[C@H](O)[C@H](O)CO.[Na+] [hyperosmotic sodium gluconate, sodium gluconate]
25
N=C(N)Nc1ccc(C(=O)Oc2ccc3cc(C(=N)N)ccc3c2)cc1 [6-amidino-2-napthyl 4-guanidinobenzoate]
55

*Q* // fetch first time point where increased ciliary transport is observed (class summary) given entry O=c1ccn([C@@H]2O[C@H](COP(=O)(O)OP(=O)(O)OP(=O)(O)O)[C@@H](O)[C@H]2O)c(=O)[nH]1 [UTP, uridine 5′-triphosphate]
*A* 25
